system: AncSZ; experiment: phosphorylation enrichment, bacterial display (enrichment ratio); higher = better substrate or ligand; peptides without Tyr show the background
Short version: phosphorylation enrichment at least 1 is true, less is false.

Would you please look over these solved cases?
[
  {
    "seq_text": "SKEPYYVRCIK [MYO1D_Y586]",
    "target_entity": "AncSZ",
    "answer_label": "true"
  },
  {
    "seq_text": "HLDRSYSFSFS [PEAR1_Y890_R885H_YF]",
    "target_entity": "AncSZ",
    "answer_label": "true"
  },
  {
    "seq_text": "FEPWVYSLSYE [PRKDC_Y647_F649L]",
    "target_entity": "AncSZ",
    "answer_label": "true"
  },
  {
    "seq_text": "KLQKYYRQNPD [EHHADH_Y683]",
    "target_entity": "AncSZ",
    "answer_label": "false"
  }
]

Asked: Please check the record GHRPVYSEDEQ [CHST6_Y362_Y358H] and state if its phosphorylation enrichment is at or above 1.
Given back: true

Asked: Could you tell me if the measured phosphorylation enrichment of DVLEFCNSKKT [PAK1_Y131_Y131C] reaches 1 or more?
Given back: false

Asked: Check this sequence for phosphorylation enrichment at or above 1: GRQGIYKENER [GPR143_Y231_T232K]
Given back: false

Asked: Evaluate LSIDRYHAIVY [NPSR1_Y147] : phosphorylation enrichment at minimum 1?
Given back: false

Asked: Textbook exercise: given the entry EWLRGYLENGK [HLA-C_Y195_R194G] , state whether its phosphorylation enrichment is greater than or equal to 1.
Given back: false

Asked: Please tell me: is the sequence KNRDVYSSDYF [USP24_Y2134] at or over 1 in terms of phosphorylation enrichment?
Given back: true

Asked: For this sequence, is measured phosphorylation enrichment 1 or higher? CTTIFYNFMCN [TP53_Y234_H233Y_YF]
Given back: true

Asked: Check if phosphorylation enrichment >= 1 (inclusive). Item: RMSQRYGDVLQ [CYP1A2_Y72]
Given back: true

Asked: Could you please find out whether YSPCDYQPCLA [TNS1_Y798_Y796C] has phosphorylation enrichment that meets 1 or exceeds it?
Given back: true

Asked: Quick check, phosphorylation enrichment >= 1? LHSEAYLKFNE [PBRM1_Y1610_I1614N_YF]
Given back: true

====

target: Jak2 (UniProt O60674); assay: phosphorylation enrichment, bacterial display (enrichment ratio); higher = better substrate or ligand; peptides without Tyr show the background
Sequence (O60674 whole entry, looked up): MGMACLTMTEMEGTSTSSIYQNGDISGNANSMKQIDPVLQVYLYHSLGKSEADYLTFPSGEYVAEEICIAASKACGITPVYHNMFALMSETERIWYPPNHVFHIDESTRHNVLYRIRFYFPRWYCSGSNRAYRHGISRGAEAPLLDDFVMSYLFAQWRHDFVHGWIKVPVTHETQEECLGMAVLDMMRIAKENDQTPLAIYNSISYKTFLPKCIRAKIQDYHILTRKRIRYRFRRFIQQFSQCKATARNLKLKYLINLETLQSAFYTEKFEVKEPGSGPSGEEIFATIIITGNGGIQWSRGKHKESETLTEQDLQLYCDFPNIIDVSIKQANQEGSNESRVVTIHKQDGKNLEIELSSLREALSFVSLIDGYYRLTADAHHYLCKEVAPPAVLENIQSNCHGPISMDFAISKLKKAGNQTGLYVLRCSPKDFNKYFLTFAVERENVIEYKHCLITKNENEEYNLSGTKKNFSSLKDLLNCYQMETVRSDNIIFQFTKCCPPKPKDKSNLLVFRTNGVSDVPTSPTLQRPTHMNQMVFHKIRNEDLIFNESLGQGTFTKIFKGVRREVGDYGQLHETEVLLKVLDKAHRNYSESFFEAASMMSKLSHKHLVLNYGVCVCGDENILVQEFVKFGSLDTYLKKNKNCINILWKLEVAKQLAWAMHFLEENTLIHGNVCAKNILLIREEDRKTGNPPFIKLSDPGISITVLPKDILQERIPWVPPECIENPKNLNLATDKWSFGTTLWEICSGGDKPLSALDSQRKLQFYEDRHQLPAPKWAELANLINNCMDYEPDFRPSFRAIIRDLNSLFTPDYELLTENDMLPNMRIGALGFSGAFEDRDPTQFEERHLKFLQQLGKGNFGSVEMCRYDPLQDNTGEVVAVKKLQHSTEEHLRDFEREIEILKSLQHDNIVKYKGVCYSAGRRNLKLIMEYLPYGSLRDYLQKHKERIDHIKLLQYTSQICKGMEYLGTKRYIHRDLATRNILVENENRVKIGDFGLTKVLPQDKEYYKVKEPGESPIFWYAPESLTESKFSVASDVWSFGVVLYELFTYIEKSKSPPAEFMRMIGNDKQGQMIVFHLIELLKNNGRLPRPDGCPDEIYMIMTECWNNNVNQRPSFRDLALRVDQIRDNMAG
Field: phosphorylation enrichment. Provide a value for each of the sequences that follow.
Give bare numbers.

Observe how each entry below is paired with its result.
[
  {
    "seq_text": "YRTPGYREVVI [TNS2_Y673_A670T]",
    "phosphorylation enrichment": 0.587
  },
  {
    "seq_text": "DLDFTYIFPNI [PTEN_Y27_L25F_YF]",
    "phosphorylation enrichment": 1.83
  },
  {
    "seq_text": "YARECYSALPQ [SARS2_Y52_G51C]",
    "phosphorylation enrichment": 0.666
  },
  {
    "seq_text": "HNLDFYKKTTN [FGFR3_Y648_YF]",
    "phosphorylation enrichment": 5.47
  },
  {
    "seq_text": "TSPALYRLDLD [TRIL_Y352_A347T]",
    "phosphorylation enrichment": 0.859
  },
  {
    "seq_text": "YRNKPYISWPS [CDC42BPB_Y1638_S1633Y]",
    "phosphorylation enrichment": 0.697
  }
]

Now turn to the next sequence.
Asked: State phosphorylation enrichment on Jak2 (UniProt O60674). Entry: YGMSSYITRED [FNDC3B_Y180_T179S]
Given back: 0.697

====

target: c-Src SH2; test: SH2 binding enrichment of the phosphorylated peptide, bacterial display (enrichment ratio); higher = better substrate or ligand; peptides without Tyr show the background
Record form. Attribute: SH2 binding enrichment. Fill in for each entry.
One number for each entry.

Provide each entry's SH2 binding enrichment from the list below.
1. EFISECCGEII [EZH2_Y641_Y641C]
2. GFILMYDITNE [RAB3C_Y110]

Given back:
[0.501, 0.674]

Give SH2 binding enrichment for all sequences that follow.
1. EEGNPYFSSAR [MCCC2_Y520_YF]
2. LSIDRYHAIVY [NPSR1_Y147]
3. RIRRRYCQVLN [IQCF1_Y144]
4. NTGNFYDLFGG [PTPN11_Y63_D61N_YF]
5. KPGLKYVTYGN [GALNTL5_Y404]
6. EWQQTYTYDSG [JUP_Y20]

Given back:
[0.51, 5.31, 0.482, 0.887, 1.11, 1.01]

Report SH2 binding enrichment for every entry below.
1. ISGGGYRACPA [FGB_Y71_R74C]
2. ISKTWYSAEQF [CD207_Y217_P213S]

Given back:
0.533
0.689

// each sequence listed below needs its SH2 binding enrichment
1. KDHPDYKFPPR [SOX10_Y171_Q174P_YF]
2. SSVKPYRVFCD [FGB_Y266_YF]

Given back:
1. 0.553
2. 0.758

List reported SH2 binding enrichment for each of these sequences:
1. FADIAYNFRHG [PAH_Y166_YF]
2. LNPLIYTLKNA [OR4C46_Y285]

Given back:
1. 0.516
2. 0.42

====

tested on: c-Src; experiment: phosphorylation enrichment, bacterial display (enrichment ratio); higher = better substrate or ligand; peptides without Tyr show the background
property: phosphorylation enrichment
Give bare numbers.

Dear reader, for each entry below, please note its phosphorylation enrichment.
1. KAIMTYVSSFY [ACTN4_Y260]
2. GHLYACDWISI [BEST1_Y227_Y227C]
3. VIVRMYDYHVL [RPF2_Y109_G106V]
4. RGFRQYAFDGK [HLA-A_Y140_D140Y_YF]
5. KTGDFYDLFGG [PTPN11_Y63_N58K_YF]
6. KKCTTYIDCDL [ASPA_Y64_R63T]

Given back:
1: 0.612; 2: 1.34; 3: 0.498; 4: 0.653; 5: 2.65; 6: 0.415

Please state, for each entry, its recorded phosphorylation enrichment.
1. KDHPDYKFPPR [SOX10_Y171_Q174P_YF]
2. AHAGEYGAEAL [HBA1_Y25]
3. IDAICYYRMEN [NPHS2_Y194]
4. HNVPIYEGFAL [ACTA1_Y168_YF]
5. PINLYYLMDLS [ITGB2_Y131_D128N]
6. CTTIHQNYMCN [TP53_Y234_Y234Q]
7. FMRGMYFRMTD [PLA2G6_Y541_K545T_YF]

Given back:
[0.434, 0.392, 1.71, 10.6, 4.42, 0.414, 0.481]

Asked: Dear colleague, please send me the reported phosphorylation enrichment for LIHTKCPQLLP [AHCY_Y143_Y143C] when you can.
Given back: 0.433

====

tested on: c-Src; test: phosphorylation enrichment, bacterial display (enrichment ratio); higher = better substrate or ligand; peptides without Tyr show the background
Assign phosphorylation enrichment to each entry below.
Numbers only.

[
  {
    "seq_text": "EWQQIYTYDSG [JUP_Y20_T19I]",
    "phosphorylation enrichment": 6.89
  }
]

For each listed entry, give its phosphorylation enrichment.
1. NQLNDYIFSFD [RARS1_Y516_R512Q]
2. IINENYDFLKV [NUP98_Y1664_G1669V_YF]
3. LSSVSYVGCSL [ADGRD1_Y571_I569V]
4. VMVCAYLLHRG [PTEN_Y138_I135V]
5. KATKGYLDDPT [G6PD_Y322_E317K]
6. LKALHYMAQTS [SACS_Y3367_V3369A]
7. TIWDSYTTNKV [GNB1_Y85_I80T]
8. KYVVVYFREID [IL17RB_Y447]

Given back:
1. 0.598
2. 0.655
3. 1.12
4. 0.558
5. 0.395
6. 0.587
7. 0.496
8. 0.626

====

Task for the reader: assign each of the following sequences its reported SH2 binding enrichment.
target: c-Src SH2; test: SH2 binding enrichment of the phosphorylated peptide, bacterial display (enrichment ratio); higher = better substrate or ligand; peptides without Tyr show the background;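 also: peptide library displayed on the E. coli surface as eCPX fusions, selected cells deep-sequenced, score is each peptide's frequency after selection divided by its frequency in the input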
One number for each entry.

Worked cases, SH2 binding enrichment given:
[
  {
    "seq_text": "LVSCAYQMARG [FGFR1_Y605_V607M]",
    "property": "SH2 binding enrichment",
    "readout_number": 0.661
  },
  {
    "seq_text": "SVVVPYQPPEV [TP53_Y220_E221Q]",
    "property": "SH2 binding enrichment",
    "readout_number": 0.535
  },
  {
    "seq_text": "YSGIYYKPESL [L2HGDH_Y103_H98Y]",
    "property": "SH2 binding enrichment",
    "readout_number": 6.04
  },
  {
    "seq_text": "SARFPYLMAEK [LDHB_Y173_R172P]",
    "property": "SH2 binding enrichment",
    "readout_number": 0.579
  },
  {
    "seq_text": "VFFDLYGGEKF [PTPN11_Y66_D61V_YF]",
    "property": "SH2 binding enrichment",
    "readout_number": 0.572
  }
]

Parameters: items (list). Returns: SH2 binding enrichment for each item.
1. VFDHIYTTQSD [RET_Y928_L923V]
2. AEPPDYSPVTQ [ADGRG2_Y285_H290Q]
3. SSWPDYVRPLP [HSPB1_Y54_G53D]

Given back:
1: 0.738; 2: 0.441; 3: 0.489

Parameter requested: SH2 binding enrichment. Apply to each item below.
1. KTGDFYDLFGG [PTPN11_Y63_N58K_YF]
2. IIRRLYLKWHP [SACS_Y4333]
3. RKKLFYKADGE [SERPINC1_Y272_E269K]
4. LNCIFYKDQTG [RS1_Y166_W163C_YF]
5. DVFVSYDFGKS [SORL1_Y139_YF]

Given back:
0.628
0.34
0.338
0.502
0.464

Measured values drawn from the supplement of paper PMC10065799 for this set.
